Experiment: Pharmacokinetics of WN-compounds in mice (brain and serum concentration, HPLC)
Format: in vivo, mouse (C57BL/6N)
Conditions: male, mouse, brain / serum; oral 50 mg/kg, C57BL/6N; read-out: brain AUC0–8 relative to serum levels
assay-endpoint: Kp

// fetch Kp given entry Cc1cc(C)c(N(C)CC(=O)Nc2nc(-c3ccccn3)c[nH]2)c(C)c1 [WN1316]
~4

----------
Experiment: Pharmacokinetics of WN-compounds in mice (brain and serum concentration, HPLC)
Assay type: in vivo, mouse (C57BL/6N)
Settings: male, mouse, serum, po; C57BL/6N mice, intragastric, 50 mg/kg, n = 4, mean ± SD; read-out: AUC0–8: Serum
assay-endpoint: AUC(0-t) (ng·h/mL)
Note: unit ng·h/mL is implicit; provide only the numeric part.

// fetch AUC(0-t) given entry "Cc1cc(C)c(N(C)CC(=O)Nc2nc(-c3ccccn3)c[nH]2)c(C)c1"
13600

----------
Experiment: Pharmacokinetics of WN-compounds in mice (brain and serum concentration, HPLC)
Format: in vivo, mouse (C57BL/6N)
Conditions: male, serum; C57BL/6N mouse, oral 50 mg/kg body weight; read-out: Cmax in blood
assay-endpoint: Cmax (µM)
Note: unit µM is implicit; provide only the numeric part.

// fetch Cmax given entry "Cc1cc(C)c(N(C)CC(=O)Nc2nc(-c3ccccn3)c[nH]2)c(C)c1"
9.78
